- tested-target: Cytochrome P450 2C19 (Homo sapiens, UniProt P33261)
- Sequence (P33261 whole entry): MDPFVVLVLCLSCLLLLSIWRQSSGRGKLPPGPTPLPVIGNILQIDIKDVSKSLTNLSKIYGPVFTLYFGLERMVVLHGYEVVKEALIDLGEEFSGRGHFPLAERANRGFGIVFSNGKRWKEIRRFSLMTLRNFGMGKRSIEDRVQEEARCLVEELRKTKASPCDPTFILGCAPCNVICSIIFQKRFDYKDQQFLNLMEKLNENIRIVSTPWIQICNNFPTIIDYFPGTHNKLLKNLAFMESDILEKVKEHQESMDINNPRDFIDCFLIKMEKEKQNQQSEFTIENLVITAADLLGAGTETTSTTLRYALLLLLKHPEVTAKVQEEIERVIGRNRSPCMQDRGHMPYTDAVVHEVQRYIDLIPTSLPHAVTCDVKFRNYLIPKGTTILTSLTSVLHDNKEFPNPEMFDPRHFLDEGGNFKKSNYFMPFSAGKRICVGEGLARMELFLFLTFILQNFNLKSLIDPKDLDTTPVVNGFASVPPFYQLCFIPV
- assay-method-text: Cytochrome panel assay with activity outcomes. Panel member name: p450-cyp2c19 Compounds with AC50 equal or less than 10 uM are considered active
- Type: functional
- experimental-context: read-out: AC50
Known AC50 of a selection of compounds

compound: O=C(O)CCC/C=C\C[C@@H]1CO[C@H](C(F)(F)F)O[C@@H]1c1ccccc1O
AC50: 10 µM (inconclusive)
//
compound: COC1=CC(=O)O[C@@H](/C=C\c2ccccc2)C1
AC50: 5.01 µM (inconclusive)
//
compound: O=C(CSc1nnc(-c2cccc(S(=O)(=O)N3CCOCC3)c2)n1C1CCCCCC1)NCc1ccccc1
AC50: 31.6 µM (inconclusive)
//
compound: O=C(COc1ccc([N+](=O)[O-])cc1)N[N-][C+]1CCCC1
AC50: 1.78 µM (inconclusive)
//
compound: Cc1cccc(NC2(C(F)(F)F)N=C(c3ccccc3)NC2=O)n1 (stereo not drawn)
AC50: 8.91 µM (inconclusive)
//
compound: NC(=O)/C(=N\O)c1ccccc1
AC50: 0.00562 µM (inconclusive)
//
compound: CNc1nc(-c2c(C)noc2C)nc2ccccc12
AC50: 3.98 µM (inconclusive)
//
compound: Nc1ncnc2c1cnn2-c1ccccc1
AC50: 4.47 µM (inconclusive)
//
compound: Cc1cc(/C=C2\SC(=S)NC2=O)c(C)n1C
AC50: 39.8 µM (inconclusive)
//
compound: O=C(c1csnn1)N1CCC2(CC1)CCN(c1ccncc1)CC2
AC50: 39.8 µM (inconclusive)
//
compound: O=C(CSc1ccccc1)Nc1ccc(N2CCN(c3ccccc3)CC2)c(F)c1
AC50: 39.8 µM (inconclusive)
//
compound: CC(=O)Nc1ccc(NC(=O)CC2Nc3cccc4cccc(c34)NC2=O)cc1 (stereo not drawn)
AC50: 39.8 µM (inconclusive)
//
compound: C[n+]1ccc(/C=C/c2ccc(Br)cc2)cc1
AC50: 3.98 µM (inconclusive)
